System: Hepatitis C virus
assay comment: Antiviral activity against Hepatitis C virus JFH1 assessed as viral RNA level by quantitative real-time PCR
Assay type: functional, organism-based, Hepacivirus hominis
settings: JFH-1
property name: pEC50
# pEC50: negative log10 of molar concentration; output just the value

Consider the compound CC(C)OC(=O)[C@H](C)NP(=O)(OC[C@H]1O[C@@H](n2ccc(=O)[nH]c2=O)[C@](C)(F)[C@@H]1O)Oc1ccccc1 (stereo partly specified) . State its measured pEC50.
6.74

###

assay comment: Inhibition of Hepatitis C virus genotype 4a recombinant NS5B polymerase after 3 hrs by phosphor imaging
Set-up: species or system Hepatitis C virus subtype 4a
property name: pIC50
# pIC50: negative log10 of molar concentration; output just the value

Consider the compound C[C@@]1(F)[C@H](O)[C@@H](COP(=O)(O)OP(=O)(O)OP(=O)(O)O)O[C@H]1n1ccc(=O)[nH]c1=O [GS-461203] . State its measured pIC50.
5.59

###

assay comment: Cytotoxicity against human HepG2 cells assessed as inhibition of mitochondrial DNA synthesis
Format: cell-based
property name: CC90

Consider the compound CC(C)OC(=O)[C@H](C)NP(=O)(OC[C@H]1O[C@@H](n2ccc(=O)[nH]c2=O)[C@](C)(F)[C@@H]1O)Oc1ccccc1 (stereo partly specified) . State its measured CC90.
< 3000 nM

###

Catalogue of molecules with associated pIC50
target or test system: DNA polymerase subunit gamma-1 (Homo sapiens)
Sequence (P54098 whole entry): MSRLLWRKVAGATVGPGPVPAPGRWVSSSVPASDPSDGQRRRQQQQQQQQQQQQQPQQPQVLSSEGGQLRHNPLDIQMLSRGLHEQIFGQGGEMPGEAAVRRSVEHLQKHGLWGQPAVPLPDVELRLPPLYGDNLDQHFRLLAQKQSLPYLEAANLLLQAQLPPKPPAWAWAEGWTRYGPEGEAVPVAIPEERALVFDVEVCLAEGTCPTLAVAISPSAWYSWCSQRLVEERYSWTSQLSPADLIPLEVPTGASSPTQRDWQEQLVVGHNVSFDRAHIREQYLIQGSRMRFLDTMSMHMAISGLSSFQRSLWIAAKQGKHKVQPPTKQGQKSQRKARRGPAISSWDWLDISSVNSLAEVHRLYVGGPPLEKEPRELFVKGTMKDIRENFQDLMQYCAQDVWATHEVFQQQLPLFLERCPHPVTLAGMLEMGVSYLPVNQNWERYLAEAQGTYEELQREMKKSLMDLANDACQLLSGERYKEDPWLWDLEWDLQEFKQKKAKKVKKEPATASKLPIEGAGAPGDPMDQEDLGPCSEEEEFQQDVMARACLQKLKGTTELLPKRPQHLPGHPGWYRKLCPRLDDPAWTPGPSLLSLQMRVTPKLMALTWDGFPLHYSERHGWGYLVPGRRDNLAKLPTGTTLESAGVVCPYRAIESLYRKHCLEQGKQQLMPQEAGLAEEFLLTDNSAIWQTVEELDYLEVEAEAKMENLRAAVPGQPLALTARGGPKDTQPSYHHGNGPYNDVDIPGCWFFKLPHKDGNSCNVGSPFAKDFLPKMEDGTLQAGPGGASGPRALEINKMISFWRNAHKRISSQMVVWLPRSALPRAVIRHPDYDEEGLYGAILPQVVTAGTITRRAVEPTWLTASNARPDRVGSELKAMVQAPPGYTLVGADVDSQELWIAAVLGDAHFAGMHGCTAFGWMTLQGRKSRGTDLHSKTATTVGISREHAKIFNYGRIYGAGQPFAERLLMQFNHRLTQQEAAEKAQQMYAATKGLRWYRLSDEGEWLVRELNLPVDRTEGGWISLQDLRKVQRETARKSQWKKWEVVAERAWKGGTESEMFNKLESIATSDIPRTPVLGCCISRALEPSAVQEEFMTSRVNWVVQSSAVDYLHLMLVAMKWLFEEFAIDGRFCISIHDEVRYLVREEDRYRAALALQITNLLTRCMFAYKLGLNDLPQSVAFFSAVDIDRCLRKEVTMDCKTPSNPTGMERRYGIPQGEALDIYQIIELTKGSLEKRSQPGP
assay comment: Inhibition of human DNA polymerase gamma assessed as incorporation of [alpha-32P]dCTP up to 1mM preincubated for 30 mins by whatman DE81 paper binding assay
pIC50: −log10 of the molar value.

input smiles | target or test system | pIC50
C[C@@]1(F)[C@H](O)[C@@H](COP(=O)(O)OP(=O)(O)OP(=O)(O)O)O[C@H]1n1ccc(=O)[nH]c1=O | DNA polymerase subunit gamma-1 (Homo sapiens) | < 3.00

Next molecule, please.
Consider the molecule C[C@@]1(CO)[C@H](O)CC[C@@]2(C)[C@H]1CC[C@H]1C[C@@H]3C[C@@]12CC[C@]3(O)CO . State its measured pIC50.
< 4.00

###

System: West Nile virus
assay comment: Antiviral activity against West Nile virus New York by neutral red assay
Type: functional, organism-based
property name: EC50

Consider the molecule CC(C)OC(=O)[C@H](C)NP(=O)(OC[C@H]1O[C@@H](n2ccc(=O)[nH]c2=O)[C@](C)(F)[C@@H]1O)Oc1ccccc1 (stereo partly specified) . State its measured EC50.
> 100 µM

###

target or test system: DNA polymerase beta (Homo sapiens)
assay comment: Inhibition of human DNA polymerase beta assessed as incorporation of [alpha-32P]dCTP up to 1mM preincubated for 30 mins by whatman DE81 paper binding assay
property name: IC50

Consider the molecule C[C@@]1(CO)[C@H](O)CC[C@@]2(C)[C@H]1CC[C@H]1C[C@@H]3C[C@@]12CC[C@]3(O)CO . State its measured IC50.
> 100 µM

###

assay comment: Cytotoxicity against human CEM cells assessed as inhibition of mitochondrial DNA synthesis
Assay type: cell-based
settings: CEM (CCRF-CEM) cells
property name: CC90

Consider the compound CC(C)OC(=O)[C@H](C)NP(=O)(OC[C@H]1O[C@@H](n2ccc(=O)[nH]c2=O)[C@](C)(F)[C@@H]1O)Oc1ccccc1 (stereo partly specified) . State its measured CC90.
< 3000 nM
